system: NCI-H524 (Small Cell Lung Carcinoma); assay: Bliss excess, mean over the matrix (fraction); higher = more synergy;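 also: after 72 h of two-drug dosing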
Some compounds, each annotated with its measured Bliss excess.
Lab note: write the figure by itself, no unit.

- C=CCn1c(=O)c2cnc(Nc3ccc(N4CCN(C)CC4)cc3)nc2n1-c1cccc(C(C)(C)O)n1 [AZD1775] + C1CN(CCC1(C(=O)N[C@@H](CCO)C2=CC=C(C=C2)Cl)N)C3=NC=NC4=C3C=CN4 [Capivasertib] (first compound max 3 µM, partner max 3 µM): -0.0075

Would you mind telling me what Bliss excess value was observed for COc1cccc(OCCCN)c1-c1cc(Nc2cnc(C#N)cn2)n[nH]1 [Prexasertib] + C[C@@H]1COCCN1C2=NC(=NC(=C2)C3(CC3)[S@](=N)(=O)C)C4=C5C=CNC5=NC=C4 [AZD6738] (first compound max 1 µM, 7x7, partner max 10 µM) ?
-0.0122

---

test system: SAS (Oral Cavity Carcinoma); assay: Bliss excess, mean over the matrix (fraction); higher = more synergy
measured-property: Bliss excess
Could you respond with only the numeric value?

- COc1cccc(OCCCN)c1-c1cc(Nc2cnc(C#N)cn2)n[nH]1 [Prexasertib] + CN(C)CCCOc1ccc(-c2ccc3ncc4c(c3c2)n(C2CCOCC2)c(=O)n4C)cn1 [AZD0156] (first compound max 1 µM, 7x7, partner max 1 µM): 0.0109
- C[C@@H]1COCCN1c1cc(C2([S@](C)(=N)=O)CC2)nc(-c2ccnc3[nH]ccc23)n1 [AZD6738] + Nc1ccn([C@@H]2O[C@H](CO)[C@@H](O)C2(F)F)c(=O)n1 [Gemcitabine] (first compound max 10 µM, 7x7, partner max 0.3 µM): 0.0762
- COc1cccc(OCCCN)c1-c1cc(Nc2cnc(C#N)cn2)n[nH]1 [Prexasertib] + C[C@@H]1COCCN1C2=NC(=NC(=C2)C3(CC3)[S@](=N)(=O)C)C4=C5C=CNC5=NC=C4 [AZD6738] (first compound max 1 µM, 7x7, partner max 10 µM): 0.0203

Next, consider the following compound.
Returns the measured Bliss excess for the input compound. Input: CCN(CCO)CCCOc1ccc2c(Nc3cc(CC(=O)Nc4cccc(F)c4)[nH]n3)ncnc2c1 [AZD2811] + C=CCn1c(=O)c2cnc(Nc3ccc(N4CCN(C)CC4)cc3)nc2n1-c1cccc(C(C)(C)O)n1 [AZD1775] (first compound max 1 µM, partner max 1 µM)
-0.0526

---

tested on: EW-11 (Ewing's Sarcoma); test: Bliss excess, mean over the matrix (fraction); higher = more synergy
Listing: Bliss excess of selected compounds
Answer using only a numeral; do not append any unit.

* COc1nnc2ccc(N3CCC(c4ccc(OCCN5CCN(C)C(=O)[C@H]5C)cc4)CC3)nn12 [AZD5153] + Cn1cnc2c(F)c(Nc3ccc(Br)cc3Cl)c(C(=O)NOCCO)cc21 [Selumetinib] (first compound max 1 µM, 7x7, partner max 10 µM) | -0.0633
* N#Cc1cnc(Nc2cc(NC[C@H]3CNCCO3)c(C(F)(F)F)cn2)cn1 [SRA737] + CCc1c2c(nc3ccc(O)cc13)-c1cc3c(c(=O)n1C2)COC(=O)[C@]3(O)CC [SN-38] (first compound max 10 µM, 7x7, partner max 0.3 µM) | -0.132
* Cc1cc2ncnn2cc1Nc1ncc2c(n1)n(C1CCOCC1)c(=O)n2C [AZD7648] + O=C(c1cc(Cc2n[nH]c(=O)c3ccccc23)ccc1F)N1CCN(C(=O)C2CC2)CC1 [Olaparib] (first compound max 10 µM, 7x7, partner max 10 µM) | -0.0826

Form field: reported Bliss excess of CS(=O)(=O)CCNCc1ccc(-c2ccc3ncnc(Nc4ccc(OCc5cccc(F)c5)c(Cl)c4)c3c2)o1 [Lapatinib] + C[C@@H](Oc1cc(-c2cnn(C3CCNCC3)c2)cnc1N)c1c(Cl)ccc(F)c1Cl [Crizotinib] (first compound max 10 µM, 7x7, partner max 10 µM)
-0.0233
